Origin of the recorded values: the supplement of paper PMC10567573

B1: BTBD10 (parent)
chain: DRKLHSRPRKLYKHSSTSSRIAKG

variants of: B1; experiment: protein stability index of a GFP-peptide fusion (GPS, HEK-293T) (PSI 1-6); higher = more stable; conditions: c terminus: a fixed tail appended;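 also: lentivirally expressed fusions sorted by FACS into six bins by GFP to DsRed ratio, PSI derived from sequencing read proportions per bin multiplied by bin number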
// values below are reported protein stability index
The answer should be written as a number, with no unit following it.

{"sequenceCode": "DRKLHSRPRKLYKHSSTSSRIAEG", "protein stability index": 4.08}

protein stability index lookup needed for `DRKLHSRPRKLYKHSCTSSRIAKG` , thanks. 3.43

What value of protein stability index has been recorded for this entry: `DRELHSRPRKLYKHSSTSSRIAKG` 4.03

Entry `DRKLHSRPRKLYKHSSTSCRIAKG` has what protein stability index? 3.62

Record request: protein stability index value, item `DRKLHSRGRKLYKHSSTSSRIAKG` 3.68

Which protein stability index value belongs to `DRKLHSRPRKLYKHMSTSSRIAKG` ? 3.1

Need protein stability index of `DRKLHSRPRKLYKHSSTSSRTAKG` , thanks. 4.18

Which measured protein stability index value corresponds to `DRKLHSRPRKLYKHSSTISRIAKG` ? 3.54

Param item = `DMKLHSRPRKLYKHSSTSSRIAKG` ; retrieve measured protein stability index. 3.89

What does the data say about its protein stability index? Entry: `DRKLHSRPHKLYKHSSTSSRIAKG` 3.7

Reported protein stability index, variant `DRKLHSRPRKLYKHSSCSSRIAKG` : ____ 3.35

Any idea what its protein stability index is? The variant is `DRKLHSRPRKLYKHSSTSSKIAKG` 3.92

What value of measured protein stability index is listed for `DRKLHSRPRMLYKHSSTSSRIAKG` ? 3.24

Consider the variant shown here: `DRKLHSRPRKLYKRSSTSSRIAKG` What is its recorded protein stability index? 4.05

Request the reported protein stability index associated with `DRKLHSRPRYLYKHSSTSSRIAKG` 3.94

Could you tell me which protein stability index is on file for `DRKLHSRPRKLYKHCSTSSRIAKG` ? 3.89

Entry `DRKLHSRPRKLYGHSSTSSRIAKG` : reported protein stability index = ? 4.42

Name the recorded protein stability index for `DRKLHMRPRKLYKHSSTSSRIAKG` . 3.46
